# System: COLO 205 colon
# protocol.notes: NCI tumour cell line growth inhibition, 48 h
Below, each of the compounds is paired with its reported TGI value.
Provide only the numeric value, understood in µM.

Check out these entries, answers already filled in.
                                   compound  result_value
0  COc1cccc(CC(C)=C(c2ccc(OCCN3CCCCC3)cc2)c2ccc(OCCN3CCCCC3)cc2)c1          3.73
1  COc1ccc2c(c1OC)CO[C@@H]2[C@H]1c2c(cc3c(c2OC)OCO3)CCN1S(=O)(=O)c1cn(C)cn1          11.6
2  CC1=C(C(=O)Nc2ccccc2)C(c2cccc3ccccc23)C(C(=O)Nc2ccccc2)=C(C)N1          26.6

Continue with the compound presented below.
// recorded TGI for CC(=O)Oc1ccc2c(c1)CC[C@@H]1C2[C@@H](O[N+](=O)[O-])C[C@@]2(C)C1CC[C@@H]2O[N+](=O)[O-] (some centres not stated) : 34.2

---

# Test system: RXF 393 renal
# protocol.notes: NCI tumour cell line growth inhibition, 48 h
The reader will find reported TGI values listed item by item below.
Answer format: numeric, µM implied, no suffix.

>>> print(df.to_string())
                                   compound         system  unit_abbrev  result_value
0  Cc1ccccc1NC(=O)c1sc2nc(C)c(C(=O)/C=C/c3ccccc3)cc2c1N  RXF 393 renal           µM           1.6
1  CCOC(=O)C(Cc1c[nH]c2cc([N+](=O)[O-])ccc12)NS(=O)(=O)c1ccc2ccccc2c1 (stereo not given)  RXF 393 renal           µM          37.8

The record that follows has no TGI shown yet.
Record O=C1CC[C@@]2(O)[C@H]3Cc4ccc(-c5ccccc5)c5c4[C@@]2(CCN3CC2CC2)[C@H]1O5 . Reported TGI: 23.7

---

# System: UACC-62 melanoma
# protocol.notes: NCI tumour cell line growth inhibition, 48 h; in the data active means GI50 below about 0.43 µM; inactive means the rest
Parameter call: string, one of active, inactive

Please review the following examples before continuing.
molecule	category.label
COc1ccc2c(c1OC)CO[C@@H]2[C@H]1c2c(cc3c(c2OC)OCO3)CCN1S(=O)(=O)c1cn(C)cn1	inactive
COC(=O)C1=C(O)[C@H](C(=O)OC)C2(O)C(C(=O)OC)[C@H](c3ccc(OC(=O)C(C)c4ccc(CC(C)C)cc4)cc3)C[C@@H]1[C@@H]2C(=O)OC (stereo partly specified)	inactive

How was O=C1CC(c2cccc(F)c2)Nc2cc3c(cc21)OCO3 (stereo unspecified) classified in this test?
active

What did the test return for COC12C=C/C(=C(/C(=O)OCc3ccccn3)C(=O)CCCCCCCCC3(OC)C=C/C(=C(/C(=O)OCc4ccccn4)C(=O)CCCCCCCC1)O3)O2 ?
active

Given CCCCCCCCCCCCCC[N+](C)(C)CCCCCCCCCCCCCC , state the outcome it received in this test.
inactive

Can you look up the reported call for CC(C)(C)C1CCC2c3c([nH]c4ccccc34)C3C(=O)N(c4ccc(Cl)cc4)C(=O)C3C2C1 (stereo unspecified) for me?
inactive

Hello, I am checking results. What call was entered for Nc1nc([Se])c2ncn(C3OC(CO)C(O)C3O)c2n1 (stereo unspecified) ?
inactive

What did this assay record as the result for CC(=O)[O-].Cn1ccnc1CNCc1nccn1C.[Cu+2].[O-][Cl+3]([O-])([O-])[O-] ?
inactive

Would you mind telling me which call this test gave CCOC(=O)c1cc2c(cc1Cl)SC(=Nc1ccccc1)N(S(=O)(=O)c1ccc(Cl)cc1)S2(=O)=O ?
inactive

Name the outcome recorded for COc1cc(OC)cc(-c2n/c(=C\c3c(O)[nH]c4ccc(OC)cc34)cc3c2=Nc2ccccc2-3)c1 in the assay.
inactive

Can you look up the reported call for CCN(Cc1ccccc1)C1CCN(Cc2cc(Br)ccc2O)CC1 for me?
inactive

Record request — test call for COc1cc(/C=C/C(=O)/C=C/c2ccc(-n3ccnc3C)cc2)ccc1O
inactive

Called result for Cc1csc2[n+]1-c1ccccc1N(C(=O)Nc1ccccc1)C(C)C2 (stereo unspecified)
inactive

For O=C(Nc1cccc(O)c1)c1ccc(NC2=C(Cl)C(=O)N(Cc3ccc(Cl)cc3Cl)C2=O)cc1 , what call appears in the results of this test?
inactive

Tell me the recorded outcome of this test for CC1=C(c2ccccc2)C(O)(c2ccccc2)C(C)C1=O (stereo unspecified) .
inactive

Recorded test call requested for CNC(=O)c1c(NC(=O)c2ccc(C(C)(C)C)cc2)sc2c(CN(C)C)c(O)ccc12
inactive

---

# System: A498 renal
# protocol.notes: NCI tumour cell line growth inhibition, 48 h
TGI for assorted compounds

compound	system	TGI
O=C(CC1OC(O)C(Cl)=C1Cl)c1cccnc1 (stereo not given)	A498 renal	> 100 µM
CN(c1ccc(C(=O)c2ccc(N(C)S(C)(=O)=O)cc2)cc1)S(C)(=O)=O	A498 renal	> 100 µM
O=C(O)c1cnc(-n2[nH]c3c(c2=O)CCCC3)[nH]c1=O	A498 renal	> 100 µM
C[CH2][Ge]([CH2]C)([CH2]C)[O]C(=O)C(OC(C)=O)c1ccccc1 (stereo not given)	A498 renal	> 100 µM

--- query ---
# TGI (compound: NCCCC[C@@H]1NC(=O)[C@H](CC(=O)O)NC(=O)CNC(=O)[C@H](CCCN=C(N)N)NC(=O)[C@@H](N)CSSC[C@@H](C(=O)O)NC(=O)[C@H](CC(=O)O)NC(=O)[C@@H]2CCCN2C(=O)CNC1=O ) is > 100 µM

---

// reported TGI per item
# Test system: OVCAR-8 ovarian
# protocol.notes: NCI tumour cell line growth inhibition, 48 h

Worked cases, answers included:
In [3]: df
Out[3]:
                                   compound  result_value
0  COC(=O)[C@H](Cc1cnc[nH]1)NC(=O)[C@@H](NC(=O)Nc1cc(C(F)(F)F)cc(C(F)(F)F)c1)C(C)C       31.6 µM
1  CC1C(C)N(C(=O)CCl)c2ccccc2N1C(=O)CCl (stereo not given)       12.5 µM
2  COC(=O)c1ccc(CN2C(=O)C(Cl)=C(Nc3cccc(Cl)c3C)C2=O)cc1      > 100 µM
3   CCN(CC)CCCNc1cc(OC)cc2nc3cc(Cl)ccc3nc12       10.2 µM

The compound O=S(=O)(NNc1ccccc1)c1ccccc1 , tested on OVCAR-8 ovarian, showed TGI of > 100 µM

---

# System: HS 578T breast
# protocol.notes: NCI tumour cell line growth inhibition, 48 h
recorded.metric: GI50

Answered cases to consult:
In [3]: df
Out[3]:
                                   molecule  result_value
0  Cc1cc2c(cc1Cl)S/C(=C/C(=O)O)C(Nc1ccc3ncsc3c1)=NS2(=O)=O       9.81 µM
1  COc1ccc(C/C(=C(\C)c2ccc(OCCN3CCCC3)cc2)c2ccc(OCCN3CCCC3)cc2)cc1       2.17 µM
2  COC(=O)c1ccc(CN2C(=O)C(Cl)=C(Nc3cccc(Cl)c3C)C2=O)cc1         21 µM

Let us examine a further case.
For CC1=C(SCCC(=O)OC(C[Se]C2=C(C)C(=O)c3ccccc3C2=O)C(=O)NCCCCCC(=O)OCc2ccccc2)C(=O)c2ccccc2C1=O (centres undefined) the molecule record lists GI50 as 7.6 µM

---

# Tested on: NCI/ADR-RES ovarian
# protocol.notes: NCI tumour cell line growth inhibition, 48 h
recorded.metric: TGI (µM)
Give the value, in units of µM, as a plain number.

Use these answered entries as a reference point.
>>> print(df.to_string())
                                   compound  recorded_metric  unit_abbrev  result_value
0  CCOC(=O)c1cc2c(cc1Cl)SC(=Nc1ccccc1)N(S(=O)(=O)c1ccc(Cl)cc1)S2(=O)=O              TGI           µM          36.5
1  O=C(CCC=C(S(=O)(=O)c1ccccc1)S(=O)(=O)c1ccccc1)c1ccccc1              TGI           µM          25.8
2  Cc1cccc(N2C(=O)C3c4[nH]c5ccccc5c4C4CCC(C(C)(C)C)CC4C3C2=O)c1 (stereo not given)              TGI           µM          32.2
3  CCC(C)[C@H](NC(=O)Nc1cc(C(F)(F)F)cc(C(F)(F)F)c1)C(=O)N[C@@H](Cc1cn(C)cn1)C(=O)OC (stereo not given in full)              TGI           µM          5.57

Next item in the queue.
GET /value?item= CCCCCCCCCCCCCCC(O)C[N+](C)(CCO)CCO (stereo not given) &field=TGI returns 49
